Sourced from PubChem BioAssay

Target: Calmodulin-1 (Homo sapiens)
Test: calcium-bound CALM1 binders on microarrays, profiling panel, artefact control for SMM control-protein annotation, biochemical, small-molecule microarray, Cy5-labelled CALM1, plus calcium (AID 1112);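 further: score merges spot fluorescence with signal to noise from triplicate slides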
Conditions: Cy5-CALM1 binding fluorescence, higher = more signal
// No strictly below -0.002 in composite z-score; Yes otherwise

// known answers, use as guide
>  <COMPOUND>
C=CCC(OC(C)=O)[C@@H]1[C@@H](N(Cc2cccc3ccccc23)C(=O)c2ccc(-c3ccccc3)cc2)c2cc(OCCCO)ccc2N1C(=O)c1ccc2ccccc2n1 (some centres not stated)

>  <EXPERIMENTAL TARGET>
Calmodulin-1 (Homo sapiens)

>  <LABEL>
Yes

$$$$
>  <COMPOUND>
CN(C)C(=O)[C@]1(Cc2ccccc2)N=C(c2ccc(OCCCO)cc2)O[C@@H]1c1ccccc1

>  <EXPERIMENTAL TARGET>
Calmodulin-1 (Homo sapiens)

>  <LABEL>
Yes

$$$$

Task item: Decide: composite z-score of CC(=O)n1cc(C(O)C2C=CC3C(=O)N(c4ccccc4)C(=O)C3N2Nc2ccccc2F)c2ccccc21 (configuration not stated) >= -0.002?
Reply: No

Task item: Identify whether the reported composite z-score of the following compound is -0.002 or greater: C=CCNC(=O)[C@@H]1[C@H]2C(=O)O[C@H](c3ccccc3)[C@H](c3ccccc3)N2[C@H](c2ccc(O)cc2)[C@@]12C(=O)Nc1ccc(C#CC3(O)CCCCCC3)cc12
Reply: No

Task item: Is composite z-score at least -0.002? Consider CC[C@H](C)C(=O)O[C@H]1CC[C@]2(C)C3=C(CCC2C1(C)C)[C@]1(C)CC[C@H]([C@H](C)CCCC(C)C)[C@@]1(C)CC3 (some centres not stated)
Reply: No

Task item: Given CCOC(=O)C1=C(C(=O)OCC)N(S(=O)(=O)CC[Si](C)(C)C)[C@H](c2ccccc2)CC1 , state whether its composite z-score is at least -0.002.
Reply: Yes

Task item: Determine whether this compound has composite z-score no lower than -0.002: CN(C)C(=O)[C@@]1(CCS(=O)(=O)c2ccccc2)N=C(c2ccc(OCCCO)cc2)O[C@H]1c1ccccc1N=[N+]=[N-]
Reply: No
